target: Human EphA2 (ephrin receptor A2) on cells (human, UniProt P29317 25-976); test: cell-based or functional assay
Sequence (P29317 25-976): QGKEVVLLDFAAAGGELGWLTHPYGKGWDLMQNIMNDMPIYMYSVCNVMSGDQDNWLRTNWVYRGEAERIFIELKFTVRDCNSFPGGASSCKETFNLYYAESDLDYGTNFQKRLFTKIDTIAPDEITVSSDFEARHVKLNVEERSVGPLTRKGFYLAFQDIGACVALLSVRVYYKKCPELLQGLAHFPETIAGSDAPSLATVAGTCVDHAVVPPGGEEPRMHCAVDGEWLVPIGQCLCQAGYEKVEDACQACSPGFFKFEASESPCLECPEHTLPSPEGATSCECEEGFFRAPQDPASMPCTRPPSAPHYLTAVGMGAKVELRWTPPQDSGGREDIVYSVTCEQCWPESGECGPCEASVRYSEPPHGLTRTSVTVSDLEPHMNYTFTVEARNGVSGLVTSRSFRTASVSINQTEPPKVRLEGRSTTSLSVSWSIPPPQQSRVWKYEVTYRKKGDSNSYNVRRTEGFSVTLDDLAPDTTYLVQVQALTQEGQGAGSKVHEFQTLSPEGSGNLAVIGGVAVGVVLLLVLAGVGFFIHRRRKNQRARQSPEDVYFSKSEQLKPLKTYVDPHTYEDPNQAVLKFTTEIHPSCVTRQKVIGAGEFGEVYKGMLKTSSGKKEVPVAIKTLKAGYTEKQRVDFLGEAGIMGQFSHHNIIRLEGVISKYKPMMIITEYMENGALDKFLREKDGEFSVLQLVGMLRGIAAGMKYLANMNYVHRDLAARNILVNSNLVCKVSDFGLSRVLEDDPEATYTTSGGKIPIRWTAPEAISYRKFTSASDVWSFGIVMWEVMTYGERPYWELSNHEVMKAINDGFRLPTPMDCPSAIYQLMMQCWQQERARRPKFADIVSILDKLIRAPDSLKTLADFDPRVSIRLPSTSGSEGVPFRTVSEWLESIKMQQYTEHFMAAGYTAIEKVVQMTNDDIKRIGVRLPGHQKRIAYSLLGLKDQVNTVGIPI
# Lookup of reported ADCC - EC50 (nM), Trial 2, A549 keyed by entry
Just the number please, in nM, no unit attached.

>>> result_number("AB-010684 (antibody, V domains shown) VH: QVQLQQWGAGLLKPSETLSLTCAVYGGSFSGYYWSWIRQPPGKGLEWIGEINHRGSINYNNYNPSLKSRVTISVDTSKNQFSLKLSSVTAADTAVYYCAKPLRPHCINGVCYSGDAFDIWGQGTMVTVAS VL: SYVLTQPPSVSVAPGQTARITCGGNNIGSKNVHWYQQKPGQAPVLVVYDDSDRPSGIPEQFSGSNSGNTATLTISRVEAGDEADYYCQVWDHSSDHVVFGGGTKLTVL")
0.048
>>> result_number("AB-010674 (antibody, V domains shown) VH: QVQLQQWGAGLLKPSETLSLTCAVYGGSFSDYYWSWIRQPPGKGLEWIGEINHRGSINYNNYNPSLKSRVTISVDTSKNQFSLKLSSVTAADTAVYYCAKPLRPHCTNGVCYSGDAFDIWGQGTMVTVAS VL: SYVLTQPPSVSVAPGQTARITCGGNNIGYKNVHWYQQKPGQAPVLVVYDDSDRPSGIPEQFSGSNSGNTATLTISRVEAGDEADYYCQVWDSESDHVVFGGGTKLTVL")
0.1
>>> result_number("AB-010683 (antibody, V domains shown) VH: QVQLQQWGAGLLKPSETLSLTCAVYGGSFSGYYWSWIRQPPGKGLEWIGEINHRGSINYNNYNPSLKSRVTISVDTSKNQFSLKLSSVTAADTAVYYCAKPLRPHCTNGVCYSGDAFDIWGQGTMVTVAS VL: SYVLTQPPSVSVAPGQTARITCGGNNIGSMNVHWYQQKPGQAPVLVVYDDSDRPSGIPEQFSGSNSGNTATLTISRVEAGDEADYYCQVWDHSSDHVVFGGGTKLTVL")
0.046
>>> result_number("AB-010678 (antibody, V domains shown) VH: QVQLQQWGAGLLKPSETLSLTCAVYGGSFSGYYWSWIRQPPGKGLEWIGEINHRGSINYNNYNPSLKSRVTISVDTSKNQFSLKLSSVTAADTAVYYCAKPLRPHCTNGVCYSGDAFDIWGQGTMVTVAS VL: SYVLTQPPSVSVAPGQTARITCRGNNIGSKNVHWYQQKPGQAPVLVVYDDSDRPSGIPEQFSGSNSGNTATLTISRVEAGDEADYYCQVWDHSSDHVVFGGGTKLTVL")
0.047

# input for lookup
stdin: For AB-010695 (antibody, V domains shown) VH: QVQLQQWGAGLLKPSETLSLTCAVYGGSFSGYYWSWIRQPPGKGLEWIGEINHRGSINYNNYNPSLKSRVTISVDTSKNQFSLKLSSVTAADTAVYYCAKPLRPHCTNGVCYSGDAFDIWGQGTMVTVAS VL: SYVLTQPPSVSVAPGQTARITCGGNNIGYKNVHWYQQKPGQAPVLVVYDDSDRPSGIPERFSGSNSGNTATLTISRVEAGDEADYYCQVWDHSSDHVVFGGGTKLTVL , what is its reported ADCC - EC50 (nM), Trial 2, A549?
stdout: 0.0096
